# target system: FSH receptor (Homo sapiens, UniProt P23945)
# protocol description: In Vitro Bio-test Procedure of Agonists and Antagonists to the FSH Receptor (cAMP accumulation in CHO-3D2 cells)
# Assay type: cell-based
# Parameters: expressed in transfected cells; host or cells: CHO-3D2 cells
# Procedure: In Vitro Bio-test Procedure of Agonists and Antagonists to the FSH Receptor The compounds were subsequently diluted in sterile procedure medium (Optimem (Gibco/BRL, Grand Island, N.Y.)/0.1% BSA) prior to use in the bio-procedure. […] Procedure: On the day of procedure, the wells were washed two times with 100 ul/well of pre-warmed (37 deg C.) procedure medium. […] CAMP accumulation in the medium was measured by radioimmunoassay. […] Analysis of Results: cAMP accumulation was expressed as fmol/mL. […]
property label: pIC50
Scale: pIC50 equals -log10([C]), with [C] in mol/L.

For reference, reported pIC50 for COc1ccc(C(=O)Nc2ccc(/C=C/c3ccc(NC(=O)c4ccc(OC)c(S(=O)(=O)N5CCCCC5)c4)cc3S(=O)(=O)O)c(S(=O)(=O)O)c2)cc1S(=O)(=O)N1CCCCC1 [Example 30h] stands at 5.09

For reference, reported pIC50 for COCCOCCOc1ccc(C(=O)Nc2ccc(/C=C/c3ccc(NC(=O)c4ccc(OCCOCCOC)c(S(=O)(=O)N5CCOCC5)c4)cc3S(=O)(=O)O)c(S(=O)(=O)O)c2)cc1S(=O)(=O)N1CCOCC1 [Example 30a] stands at 5.80

Given item COc1ccc(C(=O)Nc2ccc(/C=C/c3ccc(NC(=O)c4ccc(OC)c(S(=O)(=O)N5CCCC5)c4)cc3S(=O)(=O)O)c(S(=O)(=O)O)c2)cc1S(=O)(=O)N1CCCC1 [Example 33e] , the value recorded as its pIC50 is 5.82

The reported value for COc1ccc(C(=O)Nc2ccc(CCc3ccc(NC(=O)c4ccc(S(C)(=O)=O)cc4)cc3S(=O)(=O)O)c(S(=O)(=O)O)c2)cc1S(=O)(=O)N1CCOCC1 [Example 43a] in terms of pIC50 is 5.06

So for O=C(O)C=CCS(=O)(=O)c1cccc(C(=O)Nc2ccc(C=Cc3ccc(NC(=O)c4cccc(S(=O)(=O)CC=CC(=O)O)c4)cc3S(=O)(=O)O)c(S(=O)(=O)O)c2)c1 [Example 36c] , the logged pIC50 turned out to be 5.02

---

# target system: FSH receptor (Homo sapiens, UniProt P23945)
# Sequence (P23945 18-695): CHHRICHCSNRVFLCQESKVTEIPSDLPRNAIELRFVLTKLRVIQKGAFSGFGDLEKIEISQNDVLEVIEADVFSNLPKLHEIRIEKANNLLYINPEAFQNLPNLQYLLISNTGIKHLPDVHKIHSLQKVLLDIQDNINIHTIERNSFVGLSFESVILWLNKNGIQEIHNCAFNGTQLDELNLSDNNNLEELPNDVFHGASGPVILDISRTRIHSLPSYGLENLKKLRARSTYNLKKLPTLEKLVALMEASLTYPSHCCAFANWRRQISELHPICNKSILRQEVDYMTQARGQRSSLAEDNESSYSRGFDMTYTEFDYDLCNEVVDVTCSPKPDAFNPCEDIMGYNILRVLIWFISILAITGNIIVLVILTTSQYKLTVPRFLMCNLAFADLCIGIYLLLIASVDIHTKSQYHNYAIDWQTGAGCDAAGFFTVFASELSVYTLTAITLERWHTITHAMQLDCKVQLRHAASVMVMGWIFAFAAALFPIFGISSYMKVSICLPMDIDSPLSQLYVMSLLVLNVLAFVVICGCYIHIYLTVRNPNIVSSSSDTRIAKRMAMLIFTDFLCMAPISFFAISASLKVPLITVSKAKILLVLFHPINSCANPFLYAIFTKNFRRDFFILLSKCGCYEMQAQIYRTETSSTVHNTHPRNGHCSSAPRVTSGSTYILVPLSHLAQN
# protocol description: FSH Receptor Radioligand Membrane Binding Standard Pharmacological Test Procedure
# Design: expressed in transfected cells
# recorded conditions: [125I]FSH binding to membranes of CHO cells stably transfected with the human FSH receptor
property label: pIC50
Keep in mind that pIC50 stands for -log10 of concentration in molar terms.

Please fill in: pIC50 reported for COc1ccc(C(=O)Nc2ccc(/C=C/c3ccc(NC(=O)c4ccc(OC)c(S(=O)(=O)NCCN5CCOCC5)c4)cc3S(=O)(=O)O)c(S(=O)(=O)O)c2)cc1S(=O)(=O)NCCN1CCOCC1 [Example 30n] = 5.74

pIC50 for COC(=O)CS(=O)(=O)c1cccc(C(=O)Nc2ccc(C=Cc3ccc(NC(=O)c4cccc(S(=O)(=O)CC(=O)OC)c4)cc3S(=O)(=O)O)c(S(=O)(=O)O)c2)c1 [Example 32d] is 4.90

Entry COc1ccc(C(=O)Nc2ccc(CCc3ccc(NC(=O)c4ccc(S(C)(=O)=O)cc4)cc3S(=O)(=O)O)c(S(=O)(=O)O)c2)cc1S(=O)(=O)N1CCOCC1 [Example 43a] — recorded pIC50 = 5.70

Given item COC(=O)CSc1ccc(C(=O)Nc2ccc(/C=C/c3ccc(NC(=O)c4ccc(SCC(=O)OC)c(S(=O)(=O)N5CCOCC5)c4)cc3S(=O)(=O)O)c(S(=O)(=O)O)c2)cc1S(=O)(=O)N1CCOCC1 [Example 32p] , the value recorded as its pIC50 is 4.82

Entry under test: COCCNS(=O)(=O)c1cc(C(=O)Nc2ccc(/C=C/c3ccc(NC(=O)c4ccc(OC)c(S(=O)(=O)NCCOC)c4)cc3S(=O)(=O)O)c(S(=O)(=O)O)c2)ccc1OC [Example 30m] . Its pIC50 was 5.66

pIC50 in this record for O=C(Nc1ccc(/C=C/c2ccc(NC(=O)c3ccc(OC4CCOCC4)c(S(=O)(=O)N4CCOCC4)c3)cc2S(=O)(=O)O)c(S(=O)(=O)O)c1)c1ccc(OC2CCOCC2)c(S(=O)(=O)N2CCOCC2)c1 [Example 30r] : 5.96

# pIC50 of COc1ccc(C(=O)Nc2ccc(CSCc3ccc(NC(=O)c4ccc(OC)c(S(=O)(=O)N5CCOCC5)c4)cc3S(=O)(=O)O)c(S(=O)(=O)O)c2)cc1S(=O)(=O)N1CCOCC1 [Example 50a] = 4.47

For this molecule ( COc1ccc(C(=O)Nc2ccc(/C=C/c3ccc(NC(=O)c4ccc(OC)c(S(=O)(=O)N5CCOCC5)c4)cc3S(=O)(=O)O)c(S(=O)(=O)O)c2)cc1S(=O)(=O)N1CCOCC1 [Example 30s] ), measured pIC50 is 5.52

pIC50 in this record for COc1ccc(C(=O)Nc2ccc(CCc3ccc(NC(=O)c4ccc(OC)c(S(=O)(=O)N5CCCCC5)c4)cc3S(=O)(=O)O)c(S(=O)(=O)O)c2)cc1S(=O)(=O)N1CCCCC1 [Example 43b] : 4.77

The molecule identified as O=C(Nc1ccc(/C=C/c2ccc(NC(=O)c3cccc(S(=O)(=O)N4CCOCC4)c3)cc2S(=O)(=O)O)c(S(=O)(=O)O)c1)c1cccc(S(=O)(=O)N2CCOCC2)c1 [Example 33a] registered its pIC50 at 5.16
